# Test system: Staphylococcus aureus
# ASSAY COMMENT: Antimicrobial activity against vancomycin-resistant Staphylococcus aureus 509 Michigan after 28 passages with Linezolid measured after 10 antibiotic-free subculture by multi-step resistance selection technique
# Format: functional
We begin with a simple list: items and their reported MIC.

{"columns": ["SMILES DATA", "READOUT QUALIFIER", "MIC (µg/mL)"],
 "data": [
  ["CC(=O)NC[C@H]1CN(c2ccc(N3CCOCC3)c(F)c2)C(=O)O1", "=", 32],
  ["Cc1c(N)cccc1Cn1ccc(OCCc2cccs2)cc1=O", "=", 0.5],
  ["CN[C@H](CC(C)C)C(=O)N[C@H]1C(=O)N[C@@H](CC(N)=O)C(=O)N[C@H]2C(=O)N[C@H]3C(=O)N[C@H](C(=O)N[C@H](C(=O)O)c4cc(O)cc(O)c4-c4cc3ccc4O)[C@H](O)c3ccc(c(Cl)c3)Oc3cc2cc(c3O[C@@H]2O[C@H](CO)[C@@H](O)[C@H](O)[C@H]2O[C@H]2C[C@](C)(N)[C@H](O)[C@H](C)O2)Oc2ccc(cc2Cl)[C@H]1O", ">", 64],
  ["CCCCCCCCCC(=O)N[C@@H](Cc1c[nH]c2ccccc12)C(=O)N[C@H](CC(N)=O)C(=O)N[C@@H](CC(=O)O)C(=O)N[C@@H]1C(=O)NCC(=O)N[C@@H](CCCN)C(=O)N[C@@H](CC(=O)O)C(=O)N[C@H](C)C(=O)N[C@@H](CC(=O)O)C(=O)NCC(=O)N[C@H](CO)C(=O)N[C@@H]([C@H](C)CC(=O)O)C(=O)N[C@@H](CC(=O)c2ccccc2N)C(=O)O[C@@H]1C", "=", 2]
]}
